Here, each record is paired with measured combination Emax data.
tested on: RPMI-7951 (Melanoma); assay: combination Emax (second highest fraction inhibited in the dose matrix, 72 h); higher = more inhibition; extreme values may be limits of the assay
// return a plain number; no unit text

# count of solved cases: 3
Cc1c2c(nn1C)CSCc1cc(n(C)n1)CSc1cc(c3ccccc3c1)OCCCc1c(C(=O)O)n(C)c3c-2c(Cl)ccc13 [AZD5991] + C1CN(CCC1(C(=O)N[C@@H](CCO)C2=CC=C(C=C2)Cl)N)C3=NC=NC4=C3C=CN4 [Capivasertib] (first compound max 1 µM, 7x7, partner max 3 µM)
0.986
Cn1cnc2c(F)c(Nc3ccc(Br)cc3Cl)c(C(=O)NOCCO)cc21 [Selumetinib] + CCN(CCO)CCCOc1ccc2c(Nc3cc(CC(=O)Nc4cccc(F)c4)[nH]n3)ncnc2c1 [AZD2811] (first compound max 10 µM, 7x7, partner max 1 µM)
0.425
CN(CCO)CC[C@H](CSc1ccccc1)Nc1ccc(S(=O)(=O)NC(=O)c2ccc(N3CCC([C@@H](O)c4ccccc4-c4ccc(Cl)cc4)CC3)cc2)cc1S(=O)(=O)C(F)(F)F [AZD4320] + C[C@@H](Nc1cc(F)cc(F)c1)c1cc(C(=O)N(C)C)cc2c(=O)cc(N3CCOCC3)oc12 [AZD8186] (first compound max 1 µM, 7x7, partner max 3 µM)
0.701

Note: attention shifts to another entry.
# query: combination Emax | item COc1cccc(OCCCN)c1-c1cc(Nc2cnc(C#N)cn2)n[nH]1 [Prexasertib] + CN(C)CCCOc1ccc(-c2ccc3ncc4c(c3c2)n(C2CCOCC2)c(=O)n4C)cn1 [AZD0156] (first compound max 1 µM, 7x7, partner max 1 µM) | system: RPMI-7951 (Melanoma)
0.953

----------
The following molecules are shown together with reported combination Emax values.
test system: ASH-3 (Thyroid Gland Carcinoma); assay: combination Emax (second highest fraction inhibited in the dose matrix, 72 h); higher = more inhibition; extreme values may be limits of the assay
Answer using only a numeral; do not append any unit.

These solved cases illustrate the format of a correct answer.
CN(CCO)CC[C@H](CSc1ccccc1)Nc1ccc(S(=O)(=O)NC(=O)c2ccc(N3CCC([C@@H](O)c4ccccc4-c4ccc(Cl)cc4)CC3)cc2)cc1S(=O)(=O)C(F)(F)F [AZD4320] + C[C@@H](Nc1cc(F)cc(F)c1)c1cc(C(=O)N(C)C)cc2c(=O)cc(N3CCOCC3)oc12 [AZD8186] (first compound max 1 µM, 7x7, partner max 3 µM)
0.682
CC(=O)c1c(C)c2cnc(Nc3ccc(N4CCNCC4)cn3)nc2n(C2CCCC2)c1=O [Palbociclib] + CN(CC[C@H](CSC1=CC=CC=C1)NC2=C(C=C(C=C2)S(=O)(=O)NC(=O)C3=CC=C(C=C3)N4CCC(CC4)[C@H](C5=CC=CC=C5C6=CC=C(C=C6)Cl)O)S(=O)(=O)C(F)(F)F)CCO [AZD4320] (first compound max 10 µM, 7x7, partner max 1 µM)
0.692
CCc1c2c(nc3ccc(O)cc13)-c1cc3c(c(=O)n1C2)COC(=O)[C@]3(O)CC [SN-38] + O=C(c1cc(Cc2n[nH]c(=O)c3ccccc23)ccc1F)N1CCN(C(=O)C2CC2)CC1 [Olaparib] (first compound max 0.3 µM, 7x7, partner max 10 µM)
0.912
Cn1cnc2c(F)c(Nc3ccc(Br)cc3Cl)c(C(=O)NOCCO)cc21 [Selumetinib] + CC(C)n1c(=O)n(C)c2cnc3cc(F)c(-c4ccc(OCCCN5CCCCC5)nc4)cc3c21 [AZD1390] (first compound max 10 µM, 7x7, partner max 0.3 µM)
0.304
COc1nnc2ccc(N3CCC(c4ccc(OCCN5CCN(C)C(=O)[C@H]5C)cc4)CC3)nn12 [AZD5153] + Cc1c2c(nn1C)CSCc1cc(n(C)n1)CSc1cc(c3ccccc3c1)OCCCc1c(C(=O)O)n(C)c3c-2c(Cl)ccc13 [AZD5991] (first compound max 1 µM, 7x7, partner max 1 µM)
0.88
Cn1cnc2c(F)c(Nc3ccc(Br)cc3Cl)c(C(=O)NOCCO)cc21 [Selumetinib] + C=CCn1c(=O)c2cnc(Nc3ccc(N4CCN(C)CC4)cc3)nc2n1-c1cccc(C(C)(C)O)n1 [AZD1775] (first compound max 10 µM, partner max 1 µM)
0.367

--- query ---
Quick one: combination Emax for COc1cccc(OCCCN)c1-c1cc(Nc2cnc(C#N)cn2)n[nH]1 [Prexasertib] + O=C(c1cc(Cc2n[nH]c(=O)c3ccccc23)ccc1F)N1CCN(C(=O)C2CC2)CC1 [Olaparib] (first compound max 1 µM, 7x7, partner max 10 µM) ?
0.694

----------
# combination Emax values compiled below
tested on: KP-2 (Pancreatic Carcinoma); test: combination Emax (second highest fraction inhibited in the dose matrix, 72 h); higher = more inhibition; extreme values may be limits of the assay

Below, each entry is followed by its recorded combination Emax result.
CN(C)CCCOc1ccc(-c2ccc3ncc4c(c3c2)n(C2CCOCC2)c(=O)n4C)cn1 [AZD0156] + CCN(CCO)CCCOc1ccc2c(Nc3cc(CC(=O)Nc4cccc(F)c4)[nH]n3)ncnc2c1 [AZD2811] (first compound max 1 µM, 7x7, partner max 1 µM)
0.0724
COc1nnc2ccc(N3CCC(c4ccc(OCCN5CCN(C)C(=O)[C@H]5C)cc4)CC3)nn12 [AZD5153] + C=CCn1c(=O)c2cnc(Nc3ccc(N4CCN(C)CC4)cc3)nc2n1-c1cccc(C(C)(C)O)n1 [AZD1775] (first compound max 1 µM, partner max 1 µM)
0.437

We now examine a further molecule.
Bench note: what combination Emax did CN(C)CCCOc1ccc(-c2ccc3ncc4c(c3c2)n(C2CCOCC2)c(=O)n4C)cn1 [AZD0156] + C[C@@H]1COCCN1C2=NC(=NC(=C2)C3(CC3)[S@](=N)(=O)C)C4=C5C=CNC5=NC=C4 [AZD6738] (first compound max 1 µM, 7x7, partner max 10 µM) show?
0.158

----------
test system: KINGS-1 (Low Grade Glioma); experiment: Bliss excess, mean over the matrix (fraction); higher = more synergy
MEASURED_ATTRIBUTE: Bliss excess
// response body must contain only the number

NC1(C(=O)N[C@@H](CCO)c2ccc(Cl)cc2)CCN(c2ncnc3[nH]ccc23)CC1 [Capivasertib] + COc1nnc2ccc(N3CCC(c4ccc(OCCN5CCN(C)C(=O)[C@H]5C)cc4)CC3)nn12 [AZD5153] (first compound max 10 µM, 7x7, partner max 1 µM)
-0.0017
CN(CCO)CC[C@H](CSc1ccccc1)Nc1ccc(S(=O)(=O)NC(=O)c2ccc(N3CCC([C@@H](O)c4ccccc4-c4ccc(Cl)cc4)CC3)cc2)cc1S(=O)(=O)C(F)(F)F [AZD4320] + C1CN(CCC1(C(=O)N[C@@H](CCO)C2=CC=C(C=C2)Cl)N)C3=NC=NC4=C3C=CN4 [Capivasertib] (first compound max 1 µM, 7x7, partner max 3 µM)
-0.103

Report Bliss excess for Cc1cc2ncnn2cc1Nc1ncc2c(n1)n(C1CCOCC1)c(=O)n2C [AZD7648] + COc1cc([C@@H]2c3cc4c(cc3[C@@H](O[C@@H]3O[C@@H]5CO[C@@H](C)O[C@H]5[C@H](O)[C@H]3O)[C@H]3COC(=O)[C@H]23)OCO4)cc(OC)c1O [Etoposide] (first compound max 10 µM, 7x7, partner max 10 µM) please.
0.061

----------
system: MFE-319 (Endometrial Carcinoma); assay: Bliss excess, mean over the matrix (fraction); higher = more synergy
MEASURED_ATTRIBUTE: Bliss excess
# respond with the number and nothing more

Look over these answered cases.
Cc1cc2ncnn2cc1Nc1ncc2c(n1)n(C1CCOCC1)c(=O)n2C [AZD7648] + C[C@@H]1COCCN1C2=NC(=NC(=C2)C3(CC3)[S@](=N)(=O)C)C4=C5C=CNC5=NC=C4 [AZD6738] (first compound max 10 µM, 7x7, partner max 10 µM)
0.0546
CN(CCO)CC[C@H](CSc1ccccc1)Nc1ccc(S(=O)(=O)NC(=O)c2ccc(N3CCC([C@@H](O)c4ccccc4-c4ccc(Cl)cc4)CC3)cc2)cc1S(=O)(=O)C(F)(F)F [AZD4320] + CCN(CCO)CCCOc1ccc2c(Nc3cc(CC(=O)Nc4cccc(F)c4)[nH]n3)ncnc2c1 [AZD2811] (first compound max 1 µM, 7x7, partner max 1 µM)
0.0841

So what does the record say about Bliss excess for CN(CCO)CC[C@H](CSc1ccccc1)Nc1ccc(S(=O)(=O)NC(=O)c2ccc(N3CCC([C@@H](O)c4ccccc4-c4ccc(Cl)cc4)CC3)cc2)cc1S(=O)(=O)C(F)(F)F [AZD4320] + C[C@@H](Nc1cc(F)cc(F)c1)c1cc(C(=O)N(C)C)cc2c(=O)cc(N3CCOCC3)oc12 [AZD8186] (first compound max 1 µM, 7x7, partner max 3 µM) ?
0.0048

----------
Listing: Bliss excess of selected compounds
tested on: SCC-3 (B-Cell Non-Hodgkin's Lymphoma); assay: Bliss excess, mean over the matrix (fraction); higher = more synergy
Respond with the number and no other words.

Consider the reported Bliss excess for these compounds:
CN(CCO)CC[C@H](CSc1ccccc1)Nc1ccc(S(=O)(=O)NC(=O)c2ccc(N3CCC([C@@H](O)c4ccccc4-c4ccc(Cl)cc4)CC3)cc2)cc1S(=O)(=O)C(F)(F)F [AZD4320] + C[C@@H](Nc1cc(F)cc(F)c1)c1cc(C(=O)N(C)C)cc2c(=O)cc(N3CCOCC3)oc12 [AZD8186] (first compound max 1 µM, 7x7, partner max 3 µM)
0.0118
COc1cccc(OCCCN)c1-c1cc(Nc2cnc(C#N)cn2)n[nH]1 [Prexasertib] + CN(C)CCCOc1ccc(-c2ccc3ncc4c(c3c2)n(C2CCOCC2)c(=O)n4C)cn1 [AZD0156] (first compound max 1 µM, 7x7, partner max 1 µM)
0.0103

Let's switch to this compound now.
Record request: Bliss excess value, item COc1nnc2ccc(N3CCC(c4ccc(OCCN5CCN(C)C(=O)[C@H]5C)cc4)CC3)nn12 [AZD5153] + Cc1c2c(nn1C)CSCc1cc(n(C)n1)CSc1cc(c3ccccc3c1)OCCCc1c(C(=O)O)n(C)c3c-2c(Cl)ccc13 [AZD5991] (first compound max 1 µM, 7x7, partner max 1 µM)
0.029
